Origin of measurements: patent US20210040189A1

EXPERIMENTAL SYSTEM: T1, human DKK1 (human, UniProt O94907 32-266)
T1 construct: also called huDKK1; hDKK1
T1 sequence: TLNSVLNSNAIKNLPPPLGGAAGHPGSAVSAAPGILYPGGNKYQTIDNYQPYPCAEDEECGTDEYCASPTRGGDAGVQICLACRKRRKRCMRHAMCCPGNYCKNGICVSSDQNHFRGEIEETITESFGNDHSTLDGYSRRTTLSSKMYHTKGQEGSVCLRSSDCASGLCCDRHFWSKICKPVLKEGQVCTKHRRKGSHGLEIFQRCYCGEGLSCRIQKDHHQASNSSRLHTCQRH
EXPERIMENTAL PROTOCOL: KinExA 3000 equilibrium binding in solution
Listed here are binders together with their documented Kd.
Give a bare numeral; the unit nM is implied.

BINDER	RECORDED ENDPOINT	QUANTITATIVE RESULT
2.40.1 (antibody, V domains shown, Fully human hybridoma IgG, kappa (Vk)) VH: QVQLVESGGGVVQPGRSLRLSCAASGFTFSSYGMHWVRQAPGKGLGWVAVISYDGSDKYYADSVKGRFTISRDNSKNTLYLQMNSLRAEDTAVYYCARDLVDTAMPWGQGTTVTVSS VL: DIVMTQSPLSLSVTPGQPASISCKSSQSLLHSDGKTYLYWYLQKPGQPPQLLIYEVSNRFSGVPDRFSGSGSGTDFTLKISRVEAEDVGVYYCMQSIQVPWTFGQGTKVEIK	Kd	0.22

Per the record, 6.139.5 (antibody, V domains shown, Fully human hybridoma IgG, kappa (Vk)) VH: QVQLVESGGGVVQPGRSLRLSCAASGFTFSSYGMHWVRQAPGKGLEWVAVISYDGGDQYYADSVKGRFTISRDNSKNTLYLQMNSLRTEDTAEYYCARELRVLWGQGTLVTVSS VL: DIVMTQTPLSLSVTPRQPASISCKSSQSLLHSDGKTYLYWYLQKPGQPPQFLIYEVSNRFSGVPDRFSGSGSGTDFTLKISRVEAEDVGVYYCMQSIQLPWTFGQGTKVEIK has Kd of 0.11

Per the record, 5.25.1 (antibody, V domains shown, Fully human hybridoma IgG, kappa (Vk)) VH: QVQLVQSGAEVKKPGASVKVSCKASGYTFTSYDINWVRQATGQGLEWMGWMDPNSGNTGYAQKFQGRVTMTRNTSISTAFMELSSLRSEDTAVYYCARTDYFYFGMDVWGQGTTVTVSS VL: DIQMTQSPSSLSASVGDRVTITCQASQDISKDLNWYQQKPGKAPRLLIYDASNLETGVPSRFSGSGSGTDFTFTISSLQPEDIATFYCQQYDHLPIAFGQGTRLEIK has Kd of 0.003

Per the record, 5.77.1 (antibody, V domains shown, Fully human hybridoma IgG, lambda (Vl)) VH: QVQLVQSGAEVKKPGASVKVSCKASGYTFTSYDINWVRQATGQGLEWMGWMNLNSDNTGYAQKFQGRVTMTRNTSISTAYMELSSLRSEDTAVYYCASIAARRDYNYYGMDVWGQGTKVTVSS VL: QSPSVSVAPGQTARITCGGNNIGSKSVHWYQQKPGQAPVLVVYDDSDRPSGIPERFSGSNSGNTATLTISRVEAGDEADYYCQVWDSSSDHWVFGGGTKLTVL has Kd of 0.008
